We begin with pIC50 values for Cytochrome P450 2C8 (Homo sapiens, UniProt P10632), as collected from the published literature.
API: returns pIC50 as number; meaning -log10 of concentration in mol/L.

- molecule: "COc1cc2c(NC3CCOCC3)nc(N3CCCC3)nc2cc1OCCCN1CCCC1"
  system.tested: "Cytochrome P450 2C8 (Homo sapiens, UniProt P10632)"
  value: 4.04
- molecule: "CC(O)c1ccc(CCOc2ccc(CC3SC(=O)NC3=O)cc2)nc1 (racemic)"
  system.tested: "Cytochrome P450 2C8 (Homo sapiens, UniProt P10632)"
  value: 3.99
- molecule: "[2H]c1c(Cl)c(Oc2cc(C(C([2H])([2H])[2H])C([2H])([2H])[2H])c(=O)[nH]n2)c(Cl)c([2H])c1-n1nc(C#N)c(=O)[nH]c1=O"
  system.tested: "Cytochrome P450 2C8 (Homo sapiens, UniProt P10632)"
  value: 5.37

# evaluate next
Lookup: Find pIC50 (Cytochrome P450 2C8 (Homo sapiens, UniProt P10632)) for the entry `COc1cc2c(Nc3ccncc3)nc(N3CCC(F)(F)CC3)nc2cc1OCCCN1CCCC1`
Found: 4.12

* * *

pIC50: −log10 of the molar value.
Literature survey of pIC50 (system: UniProt:P10632).

Some compounds with recorded pIC50:
- compound: "Cn1cc(S(=O)(=O)N2CCC3=Cc4c(cnn4-c4ccc(F)cc4)C[C@]3(C(=O)c3cc(C(F)(F)F)ccn3)C2)cn1"
  pIC50: 6.68
- compound: "O=C1CCCc2c1cc(C(=O)Nc1ccc(Oc3ccnc4cc(OCCCN5CCOCC5)ccc34)cn1)c(=O)n2-c1ccccc1"
  pIC50: "< 5.00"

Lookup: Record request: pIC50 value, item `COc1cc2c(NC3CCOCC3)nc(N3CCC(F)(F)CC3)nc2cc1OCCCN1CCCC1`
Found: 4.69

Lookup: Lookup `COc1cc2c(NC3CCOCC3)nc(N3CCCN(C)CC3)nc2cc1OCCCN1CCCC1`
Found: 4.02

Lookup: Repeat for the following compound: `CN(C)C/C=C/C(=O)N1CC[C@@H](n2c(=O)n(-c3ccc(Oc4ccccc4)cc3)c3c(N)ncnc32)C1`
Found: < 5.00

Lookup: Try the compound CN1C(=O)N(c2cccc(C(F)(F)F)c2)C2=C(C(=O)NCC2)C1c1ccc(C#N)cc1-c1cccnc1 (stereo not shown)
Found: < 4.30

Lookup: Next compound: `C=CC(=O)N1CCC(Cn2c(=O)n(-c3ccc(Oc4ccccc4)cc3)c3c(N)ncnc32)CC1`
Found: < 5.00

* * *

Literature-derived IC50 for Cytochrome P450 2C8 (Homo sapiens) follows.

// worked examples, IC50 included
- smi: "CC(=O)C1=C(C)N(c2cccc(C(F)(F)F)c2)C(=O)N(C)[C@@H]1c1ccc(C#N)cc1-c1ccc(=O)n(C)c1"
  IC50: "> 50 µM"
- smi: "CC(C)C[C@H]1NC(=O)[C@@H](C)N(C)C(=O)[C@H](C2CC2)NC[C@@H](C)Oc2ccccc2CC[C@H](C)NC1=O"
  IC50: "> 100 µM"

Let us examine a further case.
Lookup: What measured IC50 goes with `NC(=O)c1nc(-c2c(Cl)cccc2Cl)oc1Nc1ccc(C(=O)N2CCS(=O)(=O)CC2)c(F)c1` ?
Found: > 30 µM
